Assay: Drug solubility in receptor solutions and excipient solutions
Assay type: physicochemical
Settings: water; same in lactose and dextrose solutions adjusted to pH 4 with tartaric acid; read-out: doxazosin solubility in water
parameter: solubility (µg/mL)
Write down the numeric answer in µg/mL and omit the unit.

Exercise: What does the data say about its solubility? Entry: COc1cc2nc(N3CCN(C(=O)C4COc5ccccc5O4)CC3)nc(N)c2cc1OC (stereo not shown) [doxazosin]
Solution: 10000

----------
Test: Drug solubility in receptor solutions and excipient solutions
Type: physicochemical
Settings: aqueous buffer; gastric buffer pH 1.5; read-out: Doxazosin solubility in the gastric buffer
parameter: solubility

Exercise: Give the measured solubility of COc1cc2nc(N3CCN(C(=O)C4COc5ccccc5O4)CC3)nc(N)c2cc1OC (stereo not shown) .
Solution: ~250 µg/mL
